- target of assay: rat NaPi-2b (Rattus norvegicus, UniProt Q9JJ09)
- test method notes: Sodium-dependent phosphate uptake of Xenopus oocytes which expressed NaPi-2b (32P)
- run parameters: Xenopus oocytes expressing rat NaPi-2b, 32P radioactive phosphorus; read-out: IC50 (phosphate uptake inhibitory activity)
experimental endpoint: pIC50
A value of pIC50 is the negative decimal logarithm of a concentration given in moles per litre.

Completed entries (count: 5):
1. Cc1ccc(/C=N/NC(=O)c2cc(N3CCCCC3)ccc2NC(=O)c2cccc(CSCCO)c2)cc1 [Compound 881]    6.74
2. COc1ccc(/C=N/NC(=O)c2cc(N3CCCCC3)ccc2NC(=O)c2cccc(CNCCN(CCO)CCO)c2)cc1 [Compound 915]    5.09
3. COc1cccc(/C=N/NC(=O)c2cc(Br)ccc2NC(=O)c2ccc(CN3CCC(CO)CC3)cc2)c1 [Compound 339]    4.89
4. CC(O)CN(Cc1cccc(C(=O)Nc2ccc(N3CCCC3=O)cc2C(=O)N/N=C/c2ccc(F)cc2)c1)CC(C)O (stereo not drawn) [Compound 947]    4.52
5. Cc1csc(NC(=O)c2cccc(CN3CCN(c4ncccn4)CC3)c2)c1C(=O)N/N=C/c1ccc(F)cc1 [Compound 828]    5.03

Data request: Which pIC50 reading was recorded for the compound Cc1ccc(/C=N/NC(=O)c2cc(Br)ccc2NC(=O)c2ccc(CN3CCC(O)CC3)cc2)cc1C [Compound 324] ?
Data returned: 5.35

Data request: Which pIC50 reading was recorded for the compound Cc1cccc(/C=N/NC(=O)c2ccccc2NC(=O)c2cccc(F)c2)c1 [Compound 83] ?
Data returned: 5.53

Data request: Which pIC50 reading was recorded for the compound COc1ccc(C(=O)Nc2ccccc2C(=O)N/N=C/c2cc(C(F)(F)F)cc(C(F)(F)F)c2)cc1OC [Compound 8] ?
Data returned: 5.76

Data request: Which pIC50 reading was recorded for the compound Cc1cc(/C=N/NC(=O)c2ccccc2NC(=O)c2ccccc2F)ccc1O [Compound 45] ?
Data returned: 4.58

Data request: Which pIC50 reading was recorded for the compound COc1ccc(C(=O)Nc2ccccc2C(=O)N/N=C/c2ccc(F)cc2)cc1OC [Compound 16] ?
Data returned: 5.64

---

- target of assay: human NaPi-2a (Homo sapiens)
- Construct: expressed in transfected cells
- Sequence (Q06495 whole entry): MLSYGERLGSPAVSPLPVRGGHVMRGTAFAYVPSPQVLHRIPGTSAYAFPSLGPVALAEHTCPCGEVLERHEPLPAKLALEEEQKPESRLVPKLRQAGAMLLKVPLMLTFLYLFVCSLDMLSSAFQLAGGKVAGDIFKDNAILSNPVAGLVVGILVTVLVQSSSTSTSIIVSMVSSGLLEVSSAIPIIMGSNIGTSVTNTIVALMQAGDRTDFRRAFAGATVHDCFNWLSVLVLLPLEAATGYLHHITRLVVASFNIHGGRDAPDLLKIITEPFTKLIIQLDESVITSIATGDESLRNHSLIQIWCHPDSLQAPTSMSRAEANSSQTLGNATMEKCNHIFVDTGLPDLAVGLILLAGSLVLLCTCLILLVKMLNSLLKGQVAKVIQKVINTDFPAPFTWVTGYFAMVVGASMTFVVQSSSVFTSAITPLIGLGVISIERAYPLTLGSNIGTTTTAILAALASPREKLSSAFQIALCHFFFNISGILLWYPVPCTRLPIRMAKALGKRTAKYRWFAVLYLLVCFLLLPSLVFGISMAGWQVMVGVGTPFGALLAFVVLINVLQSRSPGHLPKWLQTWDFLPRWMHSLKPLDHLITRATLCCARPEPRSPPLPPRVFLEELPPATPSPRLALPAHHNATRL
- test method notes: Sodium-dependent phosphate uptake of Xenopus oocytes which expressed NaPi-2a (32P)
- Assay type: cell-based
- run parameters: phosphate uptake, Xenopus oocytes expressing human NaPi-2a; five concentration levels
experimental endpoint: pIC50
A value of pIC50 is the negative decimal logarithm of a concentration given in moles per litre.

1) Cc1csc(NC(=O)c2cccc(CN(CCO)CCO)c2)c1C(=O)N/N=C/c1ccc(F)cc1    5.18
2) Cc1csc(NC(=O)c2cccc(CN(CCO)CCO)c2)c1C(=O)N/N=C/c1cccc(F)c1    5.03

Data request: Which pIC50 reading was recorded for the molecule `Cc1ccc(/C=N/NC(=O)c2cc(N3CCCCC3)ccc2NC(=O)c2cccc(CN3CCc4nc5ncccc5cc4C3)c2)cc1` ?
Data returned: 5.44

---

// values below are reported pIC50
- target of assay: rat NaPi-2b (Rattus norvegicus, UniProt Q9JJ09)
- test method notes: Sodium-dependent phosphate uptake of Xenopus oocytes which expressed NaPi-2b (32P)
- run parameters: Xenopus oocytes expressing rat NaPi-2b, 32P radioactive phosphorus; read-out: IC50 (phosphate uptake inhibitory activity)
A value of pIC50 is the negative decimal logarithm of a concentration given in moles per litre.

Completed entries (count: 5):
1) Cc1ccc(/C=N/NC(=O)c2cc(Cl)ccc2NC(=O)c2ccncc2)cc1    4.64
2) COc1ccc(C(=O)Nc2ccccc2C(=O)N/N=C/c2ccc(F)cc2)cc1    5.68
3) COc1cccc(/C=N/NC(=O)c2cc(Br)ccc2NC(=O)c2ccc(CN(CC(C)O)CC(C)O)cc2)c1 (stereo not drawn)    4.74
4) CCN(CC)CCN(Cc1cccc(C(=O)Nc2sc3c(c2C(=O)N/N=C/c2ccc(Cl)c(C(F)(F)F)c2)CCCC3)c1)C(C)=O    5.53
5) COc1cc(OC)cc(C(=O)Nc2ccccc2C(=O)N/N=C/c2ccc(C)c(C)c2)c1    4.96

Data request: Which pIC50 reading was recorded for the compound `Cc1cc(/C=N/NC(=O)c2cc(Br)ccc2NC(=O)c2cccnc2)oc1C` ?
Data returned: 5.03

Data request: Which pIC50 reading was recorded for the compound `Cc1ccc(/C=N/NC(=O)c2cc(N3CCCCC3)ccc2NC(=O)c2cccc(CN3CCN(CCO)CC3)c2)cc1C` ?
Data returned: 6.13

Data request: Which pIC50 reading was recorded for the compound `CCN(CC)CCN(C)Cc1cccc(C(=O)Nc2ccc(Cl)cc2C(=O)N/N=C/c2cccc(OC)c2)c1` ?
Data returned: 6.51

Data request: Which pIC50 reading was recorded for the compound `COc1cc(/C=N/NC(=O)c2cc(N3CCCCC3)ccc2NC(=O)c2ccc(OC)c(OC)c2)ccc1O` ?
Data returned: 5.85

---

// values below are reported IC50
- target of assay: UniProtKB Q9JJ09
- test method notes: Sodium-dependent phosphate uptake of Xenopus oocytes which expressed NaPi-2b (32P)
- run parameters: Xenopus oocytes expressing rat NaPi-2b, 32P radioactive phosphorus; read-out: IC50 (phosphate uptake inhibitory activity)

1. Cc1ccc(/C=N/NC(=O)c2cc(Cl)ccc2NC(=O)c2cccc(CN3CCC(N4CCCCC4)CC3)c2)cc1C [Compound 372]    800 nM
2. Cc1ccc(/C=N/NC(=O)c2c(NC(=O)c3cccc(CN(CC(C)O)CC(C)O)c3)sc3c2CCC3)cc1C (stereo not shown) [Compound 804]    1230 nM
3. O=C(Nc1ccc(N2CCCCC2)cc1C(=O)N/N=C/c1ccc(F)cc1)c1cccc(CSCC(O)CO)c1 (stereo not shown) [Compound 901]    < 1000 nM

Turning to the following molecule.
Data request: Which IC50 reading was recorded for the molecule COc1ccc(C(=O)Nc2ccc(Br)cc2C(=O)N/N=C/c2cccc(F)c2)cc1OC [Compound 29] ?
Data returned: 550 nM

---

- target of assay: rat NaPi-2b (Rattus norvegicus)
- Construct: expressed in transfected cells; host or cells: Xenopus oocytes injected with cRNA
- Sequence (Q9JJ09 1-695): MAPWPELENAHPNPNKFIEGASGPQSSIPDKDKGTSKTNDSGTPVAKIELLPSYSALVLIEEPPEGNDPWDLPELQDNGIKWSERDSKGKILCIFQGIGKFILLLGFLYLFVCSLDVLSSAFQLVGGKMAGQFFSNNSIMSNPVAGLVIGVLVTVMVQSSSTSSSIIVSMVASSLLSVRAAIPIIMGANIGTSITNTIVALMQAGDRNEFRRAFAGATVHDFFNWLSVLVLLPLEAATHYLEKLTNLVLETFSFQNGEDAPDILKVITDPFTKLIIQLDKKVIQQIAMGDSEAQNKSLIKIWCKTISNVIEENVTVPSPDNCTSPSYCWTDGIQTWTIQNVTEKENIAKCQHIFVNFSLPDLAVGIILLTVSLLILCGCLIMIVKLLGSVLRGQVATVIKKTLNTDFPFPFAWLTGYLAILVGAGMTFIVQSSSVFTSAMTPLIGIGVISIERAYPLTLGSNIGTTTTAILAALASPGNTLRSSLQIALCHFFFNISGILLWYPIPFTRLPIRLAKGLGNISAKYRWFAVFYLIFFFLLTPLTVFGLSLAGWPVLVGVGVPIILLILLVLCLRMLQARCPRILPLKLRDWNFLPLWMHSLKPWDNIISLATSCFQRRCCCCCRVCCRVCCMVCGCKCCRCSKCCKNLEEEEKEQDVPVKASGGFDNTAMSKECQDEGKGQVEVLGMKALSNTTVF
- test method notes: Sodium-dependent phosphate uptake of Xenopus oocytes which expressed NaPi-2b (32P)
- Assay type: cell-based
- run parameters: phosphate uptake, oocytes expressing rat NaPi-2b; 300 μM, determined from inhibition curve
Each record's class is read off its inhibition at 300 µM using these ranges: 1 (below 40%), 2 (40% to below 60%), 3 (60% or more)

Worked examples, 3 compounds total:
1) CCN(CC)CCN(C)Cc1cccc(C(=O)Nc2c(C)csc2C(=O)N/N=C/c2ccc(OC)cc2)c1    1
2) Cc1ccc(/C=N/NC(=O)c2cc(Br)ccc2NC(=O)c2ccc(CN3CCN(c4ccc(F)cc4)CC3)cc2)cc1C    2
3) Cc1csc(C(=O)N/N=C/c2cccc(F)c2)c1NC(=O)c1cccc(CSc2nc[nH]n2)c1    2

Data request: Into which bin does this compound go? `O=C(Nc1ccc(Br)cc1C(=O)N/N=C/c1cccc(F)c1)c1ccc(CN2CCC(CCO)CC2)cc1`
Data returned: 3

Data request: Into which bin does this compound go? COc1ccc(/C=N/NC(=O)c2ccsc2NC(=O)c2cccc(CN(CC(C)O)CC(C)O)c2)cc1 (stereo not drawn)
Data returned: 2

---

- target of assay: rat NaPi-2b (Rattus norvegicus, UniProt Q9JJ09)
- Construct: expressed in transfected cells; host or cells: Xenopus oocytes injected with cRNA
- Sequence (Q9JJ09 1-695): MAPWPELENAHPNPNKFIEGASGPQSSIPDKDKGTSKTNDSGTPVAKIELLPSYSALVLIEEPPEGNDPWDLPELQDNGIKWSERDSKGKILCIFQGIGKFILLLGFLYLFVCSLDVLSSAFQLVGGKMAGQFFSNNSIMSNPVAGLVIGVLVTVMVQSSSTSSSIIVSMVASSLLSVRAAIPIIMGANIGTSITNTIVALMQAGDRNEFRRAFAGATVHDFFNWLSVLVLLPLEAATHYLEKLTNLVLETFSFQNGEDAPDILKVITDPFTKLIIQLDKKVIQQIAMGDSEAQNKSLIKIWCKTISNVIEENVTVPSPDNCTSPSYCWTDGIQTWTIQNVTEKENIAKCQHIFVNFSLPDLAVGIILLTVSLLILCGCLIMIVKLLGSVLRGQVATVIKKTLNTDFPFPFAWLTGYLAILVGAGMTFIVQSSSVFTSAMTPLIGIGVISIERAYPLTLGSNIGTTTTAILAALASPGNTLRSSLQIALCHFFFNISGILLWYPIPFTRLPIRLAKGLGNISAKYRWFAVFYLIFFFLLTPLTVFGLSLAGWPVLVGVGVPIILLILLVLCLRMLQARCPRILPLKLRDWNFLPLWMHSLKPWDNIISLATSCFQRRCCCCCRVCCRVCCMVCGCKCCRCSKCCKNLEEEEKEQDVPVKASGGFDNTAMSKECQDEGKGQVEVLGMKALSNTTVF
- test method notes: Sodium-dependent phosphate uptake of Xenopus oocytes which expressed NaPi-2b (32P)
- Format: cell-based
- run parameters: phosphate uptake, oocytes expressing rat NaPi-2b; 300 μM, determined from inhibition curve
Tick met if inhibition at 300 µM is 40% or greater. Tick not met if inhibition at 300 µM is less than 40%.

1) Cc1ccc(/C=N/NC(=O)c2cc(OCC(O)CN3CCOCC3)ccc2NC(=O)c2cccc(CN(CC(C)O)CC(C)O)c2)cc1C (centres unmarked)    met

Data request: Does the molecule CC(O)CN(Cc1cccc(C(=O)Nc2ccsc2C(=O)N/N=C/c2cccc(F)c2)c1)CC(C)O (centres unmarked) have recorded inhibition at 300 µM that is 40% or more?
Data returned: not met

Data request: Does the molecule `COc1ccc(C(=O)Nc2ccc(Cl)cc2C(=O)N/N=C/c2cccc(C)n2)cc1OC` have recorded inhibition at 300 µM that is 40% or more?
Data returned: not met
